- Test system: human red blood cells
- ASSAY REMARKS: Hemolytic activity determination
- Format: cell-based
- CONDITION: 2% (v/v) hRBCs, peptide 12.5-200 μg/mL, 37 °C, 1 h, absorbance 540 nm; 1% Triton X-100 = 100%; three independent experiments
Where a SMILES comes first, the peptide text is derived from it.
Provide the recorded HC10: the concentration of the peptide that causes 10% hemolysis of human red blood cells for the entries that follow.

Worked set:
CC[C@H](C)[C@H](NC(=O)[C@H](CCCCN)NC(=O)CN)C(=O)N[C@@H](Cc1c[nH]c2ccccc12)C(=O)N[C@@H](CC(N)=O)C(=O)N[C@@H](CO)C(=O)N[C@@H](CCC(=O)O)C(=O)N1CCC[C@H]1C(=O)N[C@H](C(=O)N[C@@H](CCCCN)C(=O)N[C@@H](C)C(=O)N[C@@H](CC(C)C)C(=O)N[C@@H](CCCCN)C(=O)N[C@@H](CO)C(N)=O)C(C)C [Smp43(11-24)] (H-GKIWNSEPVKALKS-NH2)
> 200 µg/mL
CC[C@H](C)[C@H](NC(=O)[C@H](CCCCN)NC(=O)[C@H](CCC(=O)O)NC(=O)[C@H](C)NC(=O)[C@@H](NC(=O)[C@H](Cc1ccccc1)NC(=O)[C@H](CC(N)=O)NC(=O)[C@H](CCCCN)NC(=O)[C@H](C)NC(=O)[C@H](C)N)C(C)C)C(=O)NCC(=O)N[C@@H](C)C(=O)N[C@H](C(=O)N1CCC[C@H]1C(N)=O)[C@@H](C)O [Smp43(29-42)] (H-AAKNFVAEKIGATP-NH2)
> 200 µg/mL

Q) Given the compound CC(C)C[C@H](NC(=O)[C@H](C)NC(=O)[C@H](CCC(N)=O)NC(=O)[C@H](CO)NC(=O)[C@H](CCCCN)NC(=O)[C@H](CC(C)C)NC(=O)[C@H](C)NC(=O)[C@H](CCCCN)NC(=O)[C@@H](N)C(C)C)C(=O)N[C@@H](CC(N)=O)C(=O)N[C@@H](C)C(=O)N[C@@H](C)C(=O)N[C@@H](CCCCN)C(=O)N[C@@H](CC(N)=O)C(N)=O [Smp43(19-32)] (H-VKALKSQALNAAKN-NH2) , write its reported HC10: the concentration of the peptide that causes 10% hemolysis of human red blood cells.
A) > 200 µg/mL

---

- Tested on: human red blood cells
- ASSAY REMARKS: Hemolytic activity determination
- Assay type: cell-based
- CONDITION: 2% (v/v) hRBCs, peptide 12.5-200 μg/mL, 37 °C, 1 h, absorbance 540 nm; 1% Triton X-100 = 100%; three independent experiments
Where a SMILES comes first, the peptide text is derived from it.
VALUE KIND: HC10: the concentration of the peptide that causes 10% hemolysis of human red blood cells

Examples from the recorded data:
CC(C)C[C@H](NC(=O)[C@H](C)NC(=O)[C@H](CCC(N)=O)NC(=O)[C@H](CO)NC(=O)[C@@H](N)CCCCN)C(=O)N[C@@H](CC(N)=O)C(=O)N[C@@H](C)C(=O)N[C@@H](C)C(=O)N[C@@H](CCCCN)C(=O)N[C@@H](CC(N)=O)C(=O)N[C@@H](Cc1ccccc1)C(=O)N[C@H](C(=O)N[C@@H](C)C(=O)N[C@@H](CCC(=O)O)C(N)=O)C(C)C [Smp43(23-36)] (H-KSQALNAAKNFVAE-NH2)
> 200 µg/mL
CC[C@H](C)[C@H](NC(=O)[C@H](CCCCN)NC(=O)CNC(=O)[C@H](C)NC(=O)[C@@H](NC(=O)[C@H](CCCCN)NC(=O)[C@H](CCCCN)NC(=O)[C@@H](NC(=O)[C@H](Cc1c[nH]c2ccccc12)NC(=O)[C@H](CC(=O)O)NC(=O)[C@@H](N)Cc1c[nH]c2ccccc12)[C@@H](C)CC)[C@@H](C)O)C(=O)N[C@@H](Cc1c[nH]c2ccccc12)C(=O)N[C@@H](CC(N)=O)C(=O)N[C@@H](CO)C(N)=O [Smp43(3-16)] (H-WDWIKKTAGKIWNS-NH2)
> 200 µg/mL

Here is the next item to consider.
Q) Annotate the compound CC[C@H](C)[C@H](NC(=O)[C@H](CCCCN)NC(=O)CNC(=O)[C@H](C)NC(=O)[C@@H](NC(=O)[C@H](CCCCN)NC(=O)[C@@H](N)CCCCN)[C@@H](C)O)C(=O)N[C@@H](Cc1c[nH]c2ccccc12)C(=O)N[C@@H](CC(N)=O)C(=O)N[C@@H](CO)C(=O)N[C@@H](CCC(=O)O)C(=O)N1CCC[C@H]1C(=O)N[C@H](C(=O)N[C@@H](CCCCN)C(N)=O)C(C)C [Smp43(7-20)] (H-KKTAGKIWNSEPVK-NH2) with its measured HC10: the concentration of the peptide that causes 10% hemolysis of human red blood cells.
A) > 200 µg/mL

Taken from paper PMC8150835.
